Molecular target: Ubiquitin-conjugating enzyme E2 N (Homo sapiens) (UniProt P61088)
Sequence (P61088 whole entry, looked up): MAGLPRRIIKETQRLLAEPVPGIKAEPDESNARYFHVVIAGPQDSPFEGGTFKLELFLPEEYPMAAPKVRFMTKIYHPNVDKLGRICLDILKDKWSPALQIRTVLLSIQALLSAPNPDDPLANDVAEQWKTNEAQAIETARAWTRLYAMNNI
Assay: UBC13 polyubiquitin chain formation inhibitors, primary screen, biochemical, TR-FRET, uHTS (AID 485273)
Settings: at 20 µM, hits give high values
In all, about 330,000 compounds went through this assay and about 1,500 (0.45%) were called active. The sample as a whole holds a higher share of actives than the screen did.
quantity: inhibition (%)
Number only, in %; omit the unit.

Tell me the measured inhibition of CCOC(=O)[C@H]1[C@H]2COc3cc(OC)ccc3[C@@H]2N2C(=O)N(c3ccc(Br)cc3)C(=O)[C@@]12C , please.
-15

Also, CCOC(=O)[C@@H]1[C@H]2COc3cc(OC)ccc3[C@@H]2N2C(=O)N(c3cccc(C)c3)C(=O)[C@@]12C please.
-7.1

Also, O=C(N/N=C/c1ccccc1O)/C(=C/c1ccccc1)CCO please.
4.1

Also, CCN(CC)C(=O)CC(c1ccc2c(c1)OCO2)c1c(OC)cc(OC)c2c(-c3ccccc3)cc(=O)oc12 (stereo not given) please.
8.8

Also, C=CCn1c(=S)sc2c(=O)[nH]c(C)nc21 please.
-13.8

---

Biological target: Ubiquitin-conjugating enzyme E2 N (Homo sapiens) (UniProt P61088)
Assay: UBC13 polyubiquitin chain formation inhibitors, primary screen, biochemical, TR-FRET, uHTS (AID 485273)
Conditions: at 20 µM
Out of some 330,000 compounds screened, about 1,500 (0.45%) were called active. No stated cut-off is given here; in the data, active means inhibition above about 45% (passing the limit was not always enough); inconclusive means no clear call, values can overlap the other calls. Shown is part of a subset that was picked to be rich in actives.
Hi there, use one of these labels in your reply, thanks! yes (1) for active, no (0) for inactive

Record request — test call for C#CCOCCOCCOCCNc1nc(N2CCN(C(=O)Cn3cc(CCCCN)nn3)CC2)nc(N2CCN(C(=O)[C@H](CCCCN)n3cc(CCC(=O)O)nn3)CC2)n1
no (0)

Also, C#CCOCCOCCOCCNc1nc(N2CCN(C(=O)CCCCCCCCCCNC(=O)[C@H](CCCCN)n3cc(C)nn3)CC2)nc(N2CCN(C(=O)CCCCCCCCCCNC(=O)[C@H](CO)n3cc(CCCSC)nn3)CC2)n1 please.
yes (1)

Also, C#CCOCCOCCOCCNc1nc(N2CCN(C(=O)CCCCCCCCCCNC(=O)Cn3cc(CCCCCN)nn3)CC2)nc(N2CCN(C(=O)CCCCCCCCCCNC(=O)[C@H](CO)n3cc(CCCSC)nn3)CC2)n1 please.
yes (1)

---

Please provide measured inhibition for the entries that follow.
Target: Ubiquitin-conjugating enzyme E2 N (Homo sapiens) (UniProt P61088)
Assay: UBC13 polyubiquitin chain formation inhibitors, primary screen, biochemical, TR-FRET, uHTS (AID 485273)
Conditions: at 20 µM, hits give high values
About 1,500 (0.45%) of roughly 330,000 compounds were called active. The sample as a whole holds a higher share of actives than the screen did.
Number only, in %; omit the unit.

Give recorded inhibition with Ubiquitin-conjugating enzyme E2 N (Homo sapiens) (UniProt P61088) for the following compound: CC1(C)CC(=O)C(C2=NC(C)(C)Cc3ccccc32)=C(O)C1
-11

Also, Cc1nc(N2CCOCC2)c2c(C)c(C(=O)Nc3ccc(C(F)(F)F)cc3)sc2n1 please.
5.6

Also, CCOC(=O)C1=C(c2ccccc2)O/C(=C(/C(=O)OC)C(F)(F)F)S1 please.
46.8

Also, COC(=O)/C(=C1\Oc2ccc(C(C)(C)C)cc2S1)C(F)(F)F please.
-10.5

Also, OCCN(Cc1ccccc1)Cc1ccc(Cl)cc1 please.
5.2

Also, CCOC(=O)c1nnn(-c2nonc2OC)c1-c1ccccc1 please.
1

Also, Cn1c(=O)c2c(-c3cccc(Br)c3)c(C#N)c(N)nc2n(C)c1=O please.
-5.6

Also, O=C(NCc1csc(-c2cccs2)n1)C1CC1 please.
-1.3

Also, COc1cccc2sc3cc(NCC[C@@H]4CCCN4C)ccc3c(=O)c12 please.
45.1

Also, CC1CC(C)(C)n2c(O)c(N=NC(N)=S)c3cccc1c32 (stereo unspecified) please.
92.1

Also, COc1ccc(NC(=O)c2sc3nc(C)nc(N4CCN(c5ccccn5)CC4)c3c2C)c(OC)c1 please.
5.6

Data provenance is PubChem BioAssay AID485273.
